Attribute: IC50
Tested on: K562
procedureText: Antiproliferative activity against human K562 cells after 72 hrs by MTT assay
Format: functional, cell-based
conditionInfo: K562, 72 h
API: value field is a number in nM; no unit string.

CCCCCCCCCCOC[C@@H]1O[C@H]2CC(=O)O[C@H]2[C@@H]1O = 1250

For the compound CCCCCCCCCCOC[C@@H](O)[C@H]1CCC(=O)O1 , give its measured IC50 value.
130

For the compound CCCCCCCCCCCC[C@@H](O)[C@H]1CCC(=O)O1 , give its measured IC50 value.
40

For the compound CCCCCCCCCOC[C@@H]1O[C@H]2CC(=O)O[C@H]2[C@@H]1O , give its measured IC50 value.
8610

====

Attribute: IC50
System: Jurkat
procedureText: Antiproliferative activity against human Jurkat cells after 72 hrs by MTT assay
Assay type: functional, cell-based
API: value field is a number in µM; no unit string.

CCCCCCCCCOC[C@@H]1O[C@H]2CC(=O)O[C@H]2[C@@H]1O = 6.64

For the compound CCCCCCCCCCOC[C@@H](O)[C@H]1CCC(=O)O1 , give its measured IC50 value.
3.01
